Assay: Cmax in Sprague-Dawley rat at 30 mg/kg, po
Assay type: ADME, organism-based
Parameters: dose 30 mg/kg, route oral
Conditions: in vivo
measurement_name: Cmax (µg/mL)
Answer with a number only, understood to be in µg/mL.

Which measured Cmax value corresponds to C[C@H]1c2c(cc(F)c(-c3cccc4cc[nH]c34)c2F)NC(C)(C)[C@@H]1O (racemic) ?
3.6

====

Target: Glucocorticoid receptor (Homo sapiens, UniProt P04150)
Sequence (P04150 whole entry): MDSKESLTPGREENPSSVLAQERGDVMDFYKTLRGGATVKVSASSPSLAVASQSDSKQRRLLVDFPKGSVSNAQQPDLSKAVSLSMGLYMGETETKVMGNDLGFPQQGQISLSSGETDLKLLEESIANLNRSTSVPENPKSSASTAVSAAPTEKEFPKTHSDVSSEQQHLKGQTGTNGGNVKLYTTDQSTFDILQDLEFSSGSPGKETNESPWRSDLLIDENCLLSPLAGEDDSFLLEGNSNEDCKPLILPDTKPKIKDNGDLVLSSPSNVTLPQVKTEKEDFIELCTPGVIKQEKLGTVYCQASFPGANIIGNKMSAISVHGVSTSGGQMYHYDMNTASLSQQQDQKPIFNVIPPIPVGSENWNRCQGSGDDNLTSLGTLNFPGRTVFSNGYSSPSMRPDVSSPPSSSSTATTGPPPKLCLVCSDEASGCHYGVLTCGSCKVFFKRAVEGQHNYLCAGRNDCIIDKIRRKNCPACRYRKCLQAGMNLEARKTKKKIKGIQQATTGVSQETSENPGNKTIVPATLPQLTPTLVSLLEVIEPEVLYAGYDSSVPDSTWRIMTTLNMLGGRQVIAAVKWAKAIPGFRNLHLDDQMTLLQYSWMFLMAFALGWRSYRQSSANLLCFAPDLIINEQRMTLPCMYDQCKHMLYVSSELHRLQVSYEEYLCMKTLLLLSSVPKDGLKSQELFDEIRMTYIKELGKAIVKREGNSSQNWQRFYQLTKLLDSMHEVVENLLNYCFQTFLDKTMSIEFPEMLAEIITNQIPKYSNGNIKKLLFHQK
Test: Agonist activity at human GR expressed in NHDF cells assessed as inhibition of IL-6 production by ELISA relative to Dexamethasone
Type: functional, cell-based
IC50 overview

Reference set, count: 6
[
  {
    "molecule": "Cc1cc(-c2cccc3cc[nH]c23)cc2c1NC(C)(C)[C@H](O)[C@H]2C (racemic)",
    "IC50": "> 1000 nM"
  },
  {
    "molecule": "Cc1c(-c2cccc3cc[nH]c23)cc2c(c1C)NC(C)(C)[C@H](O)[C@H]2C (racemic)",
    "IC50": "> 1000 nM"
  },
  {
    "molecule": "C=Cc1c(-c2cccc3cc[nH]c23)cc2c(c1C)NC(C)(C)[C@H](O)[C@H]2C (racemic)",
    "IC50": "> 1000 nM"
  },
  {
    "molecule": "Cc1c(Cl)c(-c2cccc3cc[nH]c23)cc2c1NC(C)(C)[C@H](O)[C@H]2C (racemic)",
    "IC50": "26 nM"
  },
  {
    "molecule": "Cc1cc(-c2cccc3cc[nH]c23)c(/C=C/C#N)c2c1NC(C)(C)[C@H](O)[C@H]2C (racemic)",
    "IC50": "16 nM"
  },
  {
    "molecule": "Cc1cc(-c2cccc3cc[nH]c23)c(/C=N/O)c2c1NC(C)(C)[C@H](O)[C@H]2C (racemic)",
    "IC50": "> 1000 nM"
  }
]

May I ask what IC50 has been recorded for C[C@H]1c2cc(-c3cccc4cc[nH]c34)c(F)c(F)c2NC(C)(C)[C@@H]1O (racemic) ?
20 nM

Another: CCO/N=C/c1c(-c2cccc3cc[nH]c23)cc(C)c2c1[C@H](C)[C@@H](O)C(C)(C)N2 (racemic)
3.4 nM

Same thing, different molecule: CCc1c(-c2cccc3cc[nH]c23)cc(C)c2c1[C@H](C)[C@@H](O)C(C)(C)N2 (racemic)
> 1000 nM
